Target: Adrenergic receptor alpha-1 (Rattus norvegicus, UniProt P15823+P23944+P43140)
Experiment: Binding affinity to alpha-1 adrenergic receptor determined by measurement of [3H]prazosin displacement from rat cortical membrane

compound	Log Ki
CC(C)CS(=O)(=O)N1CCC[C@@H]2CN3CCc4cc5c(cc4[C@@H]3C[C@@H]21)OCO5	-5.04
CS(=O)(=O)N1CC[C@@H]2CN3CCc4ccccc4[C@@H]3C[C@@H]2C1	-5.8
COc1ccc(OC)c2c1CCN1C[C@H]3CCCN(S(C)(=O)=O)[C@H]3C[C@@H]21	-5.63
CS(=O)(=O)N1CCC[C@@H]2CN3CCc4cc5c(cc4[C@@H]3C[C@@H]21)OCCO5	-5.02
O=S(=O)(CCO)N1CCC[C@@H]2CN3CCc4ccccc4[C@@H]3C[C@@H]21	-4.89
COc1ccc2c(c1)CCN1C[C@H]3CCCN(S(=O)(=O)CC(C)C)[C@H]3C[C@@H]21	-5.41
Nc1ccc(S(=O)(=O)N2CCC[C@@H]3CN4CCc5ccccc5[C@@H]4C[C@@H]32)cc1	-5.33
COc1cc2c(cc1OC)[C@@H]1C[C@H]3[C@H](CCCN3S(C)(=O)=O)CN1C(C)C2 (stereo partly drawn)	-4.93
